# System: Staphylococcus aureus
# TEST: Minimum growth inhibiting concentration, agar plate method
# Format: cell-based
# CONDITION_NOTES: strain resistant to the respective antibiotic (Table 2)
Assignment: determine reported Minimum growth inhibiting concentration (MIC) for the given compounds.

// query Please give the measured Minimum growth inhibiting concentration (MIC) for this compound: [H]/N=C(/N)N[C@H]1[C@H](O)[C@@H](O)[C@H](O[C@@H]2O[C@@H](C)[C@](O)(C=O)[C@H]2O[C@@H]2O[C@@H](CO)[C@H](O)[C@@H](O)[C@@H]2NC)[C@@H](N/C(N)=N\[H])[C@@H]1O
// result > 100 mg/L

// query Would you kindly share the measured Minimum growth inhibiting concentration (MIC) for CN(C)[C@@H]1C(O)=C(C(N)=O)C(=O)[C@@]2(O)C(O)=C3C(=O)c4c(O)cccc4[C@@](C)(O)[C@H]3C[C@@H]12 ?
// result 25 mg/L

// query # Minimum growth inhibiting concentration (MIC) lookup, item CC1(C)S[C@@H]2[C@H](NC(=O)Cc3ccccc3)C(=O)N2[C@H]1C(=O)O
// result 12.5 mg/L

// query # input compound: O=C(N[C@H](CO)[C@H](O)c1ccc([N+](=O)[O-])cc1)C(Cl)Cl ; wanted: its Minimum growth inhibiting concentration (MIC)
// result 25 mg/L
